# procedure.summary: Solubility of Form S14 in aqueous media at 37° C.
# Format: physicochemical
# conditions: aqueous medium, aqueous buffer, thermodynamic from solid; pH 6.8 37° C.; read-out: Concentration (solubility)
Counter-ions that a name gives are not always drawn.
property.name: solubility (mg/mL)
Numbers only here, please. The scale is mg/mL.

The molecule identified as N[C@@H](CC(=O)N1CCn2c(nnc2C(F)(F)F)C1)Cc1cc(F)c(F)cc1F [Form S14, Sitagliptin sulfate] registered its solubility at 330

* * *

# procedure.summary: Solubility of Form S14 in aqueous media at 37° C.
# Type: physicochemical
# conditions: aqueous medium, aqueous buffer, thermodynamic from solid; pH 4.5 37° C.; read-out: Concentration (solubility)
Where a name gives a salt, the structure may show the parent alone.
property.name: solubility (mg/mL)
Kindly answer with a numeric value in mg/mL, unit omitted.

For N[C@@H](CC(=O)N1CCn2c(nnc2C(F)(F)F)C1)Cc1cc(F)c(F)cc1F [Form S14, Sitagliptin sulfate] the compound record lists solubility as 500

* * *

# procedure.summary: Solubility of Form S14 in aqueous media at 37° C.
# Type: physicochemical
# conditions: aqueous medium, simulated gastric fluid, thermodynamic from solid; pH 1.2, 37° C.; read-out: Concentration (solubility)
Structures can show the parent of a compound that is named as a salt.
property.name: solubility (mg/mL)
Numeric only. Scale: mg/mL

The molecule listed as N[C@@H](CC(=O)N1CCn2c(nnc2C(F)(F)F)C1)Cc1cc(F)c(F)cc1F [Form S14, Sitagliptin sulfate] has a reported solubility of 500

* * *

# procedure.summary: Water solubility of Form S16 (European Pharmacopoeia classification)
# Assay type: physicochemical
# conditions: in 1 mL of water; read-out: Amount soluble in 1 mL of water
Structures can show the parent of a compound that is named as a salt.
property.name: solubility

GET /value?item= N[C@@H](CC(=O)N1CCn2c(nnc2C(F)(F)F)C1)Cc1cc(F)c(F)cc1F [Form S16, Sitagliptin sulfate] &field=solubility returns ≥ 100 mg/mL
